Molecular target: Sentrin-specific protease 8 (Homo sapiens);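 further: luminescence read-out of SENP8 inhibition, dose-response confirmation following an ultra-high-throughput screen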
Sequence (Q96LD8 whole entry): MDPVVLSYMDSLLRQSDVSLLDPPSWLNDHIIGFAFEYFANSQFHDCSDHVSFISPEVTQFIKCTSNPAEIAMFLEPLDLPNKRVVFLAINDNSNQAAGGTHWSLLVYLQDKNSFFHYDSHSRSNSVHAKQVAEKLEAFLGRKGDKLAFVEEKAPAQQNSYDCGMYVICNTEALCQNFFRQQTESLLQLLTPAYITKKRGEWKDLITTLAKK
Type: functional
Calls of active or inactive are those of the source.
Your response should consist of one outcome taken from Y (active), N (inactive)

Worked examples follow.
Task: What classification did "O=C(N/N=C/C(Cl)=C\c1ccccc1)c1cccs1" end up with in this test?
Output: N

Task: Would you mind telling me which call this test gave "CCCOc1cc2c(C#N)c(N3CCCC3)nc(N)c2c(N)n1" ?
Output: Y

Task: Record lookup: outcome of this test for "COc1ccc(-c2noc(Cc3cccs3)n2)cc1" ?
Output: Y

Task: What classification did "O=C(O)c1ccc(COc2ccccc2[N+](=O)[O-])o1" end up with in this test?
Output: Y

Turning now to a further record.
Task: For "c1ccc(CCNc2ncnc3c2cnn3-c2ccccc2)cc1" , which call appears in the assay record?
Output: Y

* * *

Measured EC50 of individual entries
System: BJ
Test: cells
Type: functional, cell-based
Settings: Homo sapiens
Activity calls are given as the source filed them.

Solved cases below.
The compound "N#Cc1c(C(F)(F)F)cc(-c2ccccc2)nc1SCC(=O)Nc1sc2c(c1C#N)CCC2" , tested on BJ, showed EC50 of > 150 µM (inconclusive)

Record for "CCOC(=O)c1c(CSC(=N)N)n(-c2ccc(C)cc2)c2cc(Br)c(OC(C)=O)cc12" under target or system BJ: EC50 reported as 12 µM (inconclusive)

Entry "N#Cc1c(NC(=O)/C=C/c2ccco2)sc2c1CCCC2" : EC50 on BJ = 1.48 µM (inconclusive)

EC50 value, target or system BJ, for "CCC1=Nc2cc(C(=O)NCCN3CCOCC3)ccc2Sc2ccc(Br)cc21" : > 150 µM (not active)

Lab entry: BJ assay, compound "O=S1(=O)C=C(Sc2nc3ccccc3s2)c2ccccc21" , EC50 = 6.14 µM (inconclusive)

More entries:
Result for Cc1cc2nc3ccc(N(C)C)cc3[s+]c2cc1N [TOLONIUM CHLORIDE] , tested on BJ, EC50: 7.39 µM (active)

* * *

# reported IC50; entries follow
Target: DNA dC->dU-editing enzyme APOBEC-3G (Homo sapiens, UniProt Q9HC16)
Sequence (Q9HC16 whole entry): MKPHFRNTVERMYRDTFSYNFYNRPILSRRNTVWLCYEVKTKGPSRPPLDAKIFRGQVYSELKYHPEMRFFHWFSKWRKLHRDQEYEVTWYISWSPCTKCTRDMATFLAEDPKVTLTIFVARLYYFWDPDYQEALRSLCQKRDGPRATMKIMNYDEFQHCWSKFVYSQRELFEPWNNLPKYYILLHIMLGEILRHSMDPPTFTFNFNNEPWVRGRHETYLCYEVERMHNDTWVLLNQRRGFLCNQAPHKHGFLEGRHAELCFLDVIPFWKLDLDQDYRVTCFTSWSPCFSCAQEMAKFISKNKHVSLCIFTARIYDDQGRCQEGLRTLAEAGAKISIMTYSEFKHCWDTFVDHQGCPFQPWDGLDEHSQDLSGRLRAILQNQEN
Assay: Dose Response confirmation of small molecule APOBEC3G DNA Deaminase Inhibitors via a fluorescence-based single-stranded DNA deaminase assay. [Related pubchem assays (depositor defined):AID493012, AID493028]
Assay type: functional
Active and inactive are the calls of the source.

Solved cases below.
Test item O=S(=O)(N=S1CC=CCN1S(=O)(=O)c1ccccc1)c1ccccc1 (centres undefined) ; DNA dC->dU-editing enzyme APOBEC-3G (Homo sapiens, UniProt Q9HC16); reported IC50 was 2.32 µM (active)

Let me check: "COC(=O)[C@H](CCSC)NC(=O)c1cc2c3ccccc3nc-2c[nH]1" , system DNA dC->dU-editing enzyme APOBEC-3G (Homo sapiens, UniProt Q9HC16), measured IC50 is 59.6 µM (active)

Fill in: DNA dC->dU-editing enzyme APOBEC-3G (Homo sapiens, UniProt Q9HC16) IC50 for O=C1c2c(O)cccc2Cc2cccc(O)c21 [ANTHRALIN] = > 100 µM (inactive)

Continuing:
Measured IC50 for this entry "COc1ccc(OC)c(/C=N/n2c(S)nnc2-c2[nH]nc3c2CCC3)c1" on DNA dC->dU-editing enzyme APOBEC-3G (Homo sapiens, UniProt Q9HC16): 2.88 µM (active)
